# system.name: human αVβ6 (Homo sapiens, UniProt P06756+P18564)
# Construct: purchased R & D systems 3817-AV
# Sequence (P06756 31-992 limits assumed): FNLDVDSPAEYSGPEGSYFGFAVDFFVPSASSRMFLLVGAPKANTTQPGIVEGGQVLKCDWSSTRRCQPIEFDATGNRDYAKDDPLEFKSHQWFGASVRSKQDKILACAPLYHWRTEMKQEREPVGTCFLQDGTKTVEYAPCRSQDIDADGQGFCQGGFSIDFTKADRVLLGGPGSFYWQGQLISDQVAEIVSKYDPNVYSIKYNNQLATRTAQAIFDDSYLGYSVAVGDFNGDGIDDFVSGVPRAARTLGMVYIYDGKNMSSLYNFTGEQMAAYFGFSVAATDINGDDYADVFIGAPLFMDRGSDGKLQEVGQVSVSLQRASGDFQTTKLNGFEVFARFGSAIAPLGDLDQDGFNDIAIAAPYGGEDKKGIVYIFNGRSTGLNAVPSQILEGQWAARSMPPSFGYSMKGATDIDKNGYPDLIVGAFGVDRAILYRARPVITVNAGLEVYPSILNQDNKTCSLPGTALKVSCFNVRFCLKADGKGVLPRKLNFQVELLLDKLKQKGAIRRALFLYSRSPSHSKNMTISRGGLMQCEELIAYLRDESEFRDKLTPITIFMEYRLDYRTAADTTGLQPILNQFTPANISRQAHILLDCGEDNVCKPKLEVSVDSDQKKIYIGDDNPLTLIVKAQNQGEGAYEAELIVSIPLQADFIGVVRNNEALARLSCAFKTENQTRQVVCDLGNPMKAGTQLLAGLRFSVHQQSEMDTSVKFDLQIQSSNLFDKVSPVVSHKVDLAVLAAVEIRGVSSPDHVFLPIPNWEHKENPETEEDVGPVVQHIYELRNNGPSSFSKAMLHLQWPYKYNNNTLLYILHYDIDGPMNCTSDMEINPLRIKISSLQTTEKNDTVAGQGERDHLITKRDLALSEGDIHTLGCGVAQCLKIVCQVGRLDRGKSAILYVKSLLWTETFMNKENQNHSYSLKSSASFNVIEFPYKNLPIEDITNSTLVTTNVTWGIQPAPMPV
# Sequence (P18564 22-707 limits assumed): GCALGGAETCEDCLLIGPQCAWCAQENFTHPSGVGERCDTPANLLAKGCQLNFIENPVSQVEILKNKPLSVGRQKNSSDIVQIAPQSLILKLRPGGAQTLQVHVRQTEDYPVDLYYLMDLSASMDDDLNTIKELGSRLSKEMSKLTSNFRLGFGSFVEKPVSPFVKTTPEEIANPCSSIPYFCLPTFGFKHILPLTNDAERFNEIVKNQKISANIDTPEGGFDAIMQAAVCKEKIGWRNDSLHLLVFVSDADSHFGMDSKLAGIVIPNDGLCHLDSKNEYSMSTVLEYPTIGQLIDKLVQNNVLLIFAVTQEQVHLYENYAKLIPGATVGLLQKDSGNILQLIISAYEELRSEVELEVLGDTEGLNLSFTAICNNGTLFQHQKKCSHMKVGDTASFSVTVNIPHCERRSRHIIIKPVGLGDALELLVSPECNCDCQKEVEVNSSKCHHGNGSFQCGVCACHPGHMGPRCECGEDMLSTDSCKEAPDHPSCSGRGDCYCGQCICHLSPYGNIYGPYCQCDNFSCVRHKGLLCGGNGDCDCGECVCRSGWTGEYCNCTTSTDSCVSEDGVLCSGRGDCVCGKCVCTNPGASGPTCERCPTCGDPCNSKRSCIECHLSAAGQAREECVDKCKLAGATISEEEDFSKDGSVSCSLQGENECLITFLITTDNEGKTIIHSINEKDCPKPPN
# assay.text: human αVβ6 HTRF binding assay
readout: IC50 (nM)

Cc1ccccc1[C@H](CC(=O)O)NC(=O)c1cnn(CCc2ccc3c(n2)NCCC3)c1CO [Example 92] : 416

[A] O=C(O)CC(NC(=O)c1cnn(CCc2ccc3c(n2)NCCC3)c1CO)c1cccc(-n2cccc2)c1 (stereo not shown) [Example 64]
[B] Cc1nn(CCc2ccc3c(n2)NCCC3)c(C)c1C(=O)NC(CC(=O)O)c1ccc(C(F)(F)F)cc1 (stereo not shown) [Example 77]
Please compare: A and B . Report which one has the smaller IC50 value. Your answer should be the label attached to the chosen record.
A

[1] CCCCCOC(=O)N[C@@H](CNC(=O)c1cnn(CCc2ccc3c(n2)NCCC3)c1)C(=O)O [Example 134]
[2] COc1ccc([C@H](CC(=O)O)NC(=O)c2cnn(CCc3ccc4c(n3)NCCC4)c2)cc1F [Example 39]
// pick min by IC50: 1 , 2 Please identify the chosen entry by its label.
1

[A] O=C(NC[C@H](NS(=O)(=O)Cc1ccc(OC(F)(F)F)cc1)C(=O)O)c1cnn(CCc2ccc3c(n2)NCCC3)c1 [Example 146]
[B] O=C(O)CC(NC(=O)c1cnn(CCc2ccc3c(n2)NCCC3)c1)c1ccc(Cl)c(C(F)(F)F)c1 (stereo not shown) [Example 24]
Could you point out whether the larger IC50 belongs to A or to B ? Reply with the label of the item you choose.
A
(A: 8.6 nM, B: 3.1 nM)

* * *

# system.name: human αVβ6 (Homo sapiens, UniProt P06756+P18564)
# assay.text: human αVβ6 HTRF binding assay
readout: IC50 (nM)

CC(C)(C)OCc1nn(CCc2ccc3c(n2)NCCC3)cc1C(=O)NC(CC(=O)O)c1cc(Cl)cc(Cl)c1 (stereo not shown) [Example 3] : 312

[1] O=C(O)CCNCc1cnn(CCc2ccc3c(n2)NCCC3)c1 [Example 175]
[2] Cc1cc(C)c(S(=O)(=O)N[C@@H](CNC(=O)c2cnn(CCc3ccc4c(n3)NCCC4)n2)C(=O)O)c(C)c1 [Example 113]
[3] CN(C(=O)c1cnn(CCc2ccc3c(n2)NCCC3)c1)[C@@H](CC(=O)O)c1cc(Cl)cc(Cl)c1 [Example 25]
Order each entry by recorded IC50, climbing from the minimum. Sort the labels as requested; that list is your answer.
2, 3, 1
(2: 1.3 nM, 3: 3.1 nM, 1: 272 nM)

* * *

# system.name: human αVβ3 (Homo sapiens, UniProt P05106+P06756)
# Sequence (P06756 31-992 limits assumed): as the sequence (P06756 31-992 limits assumed) above
# Sequence (P05106 27-718 limits assumed): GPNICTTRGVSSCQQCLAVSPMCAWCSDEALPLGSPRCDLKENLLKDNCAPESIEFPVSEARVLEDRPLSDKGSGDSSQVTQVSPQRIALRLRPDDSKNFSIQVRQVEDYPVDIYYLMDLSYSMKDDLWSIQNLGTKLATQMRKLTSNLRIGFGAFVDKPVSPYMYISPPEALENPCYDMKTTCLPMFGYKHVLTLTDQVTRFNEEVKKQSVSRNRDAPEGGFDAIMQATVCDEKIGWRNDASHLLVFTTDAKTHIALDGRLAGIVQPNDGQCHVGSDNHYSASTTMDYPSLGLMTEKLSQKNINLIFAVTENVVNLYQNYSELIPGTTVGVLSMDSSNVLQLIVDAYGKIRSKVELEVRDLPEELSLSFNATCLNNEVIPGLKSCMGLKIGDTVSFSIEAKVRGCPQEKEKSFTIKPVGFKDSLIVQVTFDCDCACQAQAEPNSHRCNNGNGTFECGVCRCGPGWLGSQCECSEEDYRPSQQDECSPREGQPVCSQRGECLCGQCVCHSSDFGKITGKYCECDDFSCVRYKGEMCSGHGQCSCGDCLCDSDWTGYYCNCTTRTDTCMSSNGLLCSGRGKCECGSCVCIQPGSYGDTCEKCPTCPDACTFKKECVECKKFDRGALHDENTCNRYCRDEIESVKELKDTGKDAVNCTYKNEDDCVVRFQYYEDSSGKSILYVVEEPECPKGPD
# assay.text: human αVβ3 HTRF binding assay
# condition.notes: read-out: Human αVβ3 IC50
pIC50: −log10 of the molar value.
readout: pIC50

Some solved entries appear below for comparison.
O=C(N[C@@H](CNC(=O)c1cnn(CCc2ccc3c(n2)NCCC3)c1)C(=O)O)OCc1ccccc1 [Example 12] : 8.68
Cc1cc(C)c(S(=O)(=O)N[C@@H](CNC(=O)c2ccn(CCc3ccc4c(n3)NCCC4)c2)C(=O)O)c(C)c1 [Example 119] : 8.82
Cc1cc(C)c(S(=O)(=O)N[C@@H](CNC(=O)c2ncn(CCc3ccc4c(n3)NCCC4)n2)C(=O)O)c(C)c1 [Example 123] : 8.68
Cc1cc(C)c(S(=O)(=O)N[C@@H](CNC(=O)c2cnn(CCc3ccc4c(n3)NCCC4)c2)C(=O)O)c(C)c1 [Example 10] : 8.72
O=C(N[C@H](CNC(=O)c1cn(CCc2ccc3c(n2)NCCC3)cn1)C(=O)O)OCc1ccccc1 [Example 121] : 8.80

[A] Cc1cc(C)c(S(=O)(=O)N[C@@H](CNC(=O)c2cnn(CCc3ccc4c(n3)NCCC4)n2)C(=O)O)c(C)c1 [Example 113]
[B] CCCCOC(=O)N[C@@H](CNC(=O)c1cnn(CCc2ccc3c(n2)NCCC3)c1)C(=O)O [Example 20]
[C] Cc1cc(C)c(S(=O)(=O)N[C@@H](CNC(=O)c2cn(CCc3ccc4c(n3)NCCC4)nn2)C(=O)O)c(C)c1 [Example 111]
Ordering: ascending pIC50. Order the labels as requested and give them as your answer.
C, A, B
(C: 8.19, A: 8.52, B: 8.74)

* * *

# system.name: human αVβ5 (Homo sapiens, UniProt P06756+P18084)
# Sequence (P06756 31-992 limits assumed): as the sequence (P06756 31-992 limits assumed) above
# Sequence (P18084 24-719 limits assumed): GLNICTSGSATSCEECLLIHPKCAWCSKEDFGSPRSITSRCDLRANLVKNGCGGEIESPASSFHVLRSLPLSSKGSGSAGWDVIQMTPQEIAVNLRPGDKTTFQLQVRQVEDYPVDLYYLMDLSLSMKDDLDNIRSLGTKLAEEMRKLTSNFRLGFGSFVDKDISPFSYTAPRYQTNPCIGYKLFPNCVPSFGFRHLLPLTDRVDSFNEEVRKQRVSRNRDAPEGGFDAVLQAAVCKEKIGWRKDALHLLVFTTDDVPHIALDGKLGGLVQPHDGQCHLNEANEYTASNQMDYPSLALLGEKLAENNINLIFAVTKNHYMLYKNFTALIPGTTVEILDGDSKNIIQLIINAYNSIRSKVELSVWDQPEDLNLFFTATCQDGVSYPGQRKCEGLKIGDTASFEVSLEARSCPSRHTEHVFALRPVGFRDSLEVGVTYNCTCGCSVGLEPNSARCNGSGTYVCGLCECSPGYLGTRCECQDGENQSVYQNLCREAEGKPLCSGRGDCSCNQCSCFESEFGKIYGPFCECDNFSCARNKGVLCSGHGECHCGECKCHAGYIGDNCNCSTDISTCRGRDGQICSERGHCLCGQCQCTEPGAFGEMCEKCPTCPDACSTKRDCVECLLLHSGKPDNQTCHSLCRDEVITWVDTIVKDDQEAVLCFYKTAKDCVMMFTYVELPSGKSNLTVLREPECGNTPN
# assay.text: human αVβ5 HTRF binding assay
# From the text: All binding assays used the HTRF (homogeneous time resolved fluorescence) technology from Cisbio International, therefore all assays are described as HTRF binding assays. The assay results for the Examples are listed above together with the characterization data. The HTRF binding assays are established for the following integrins: human αVβ6, human αVβ1, human αVβ3, human αVβ5, and human αVβ8. […]
readout: IC50 (pM)

Cc1cc(C)c(S(=O)(=O)N[C@@H](CNC(=O)c2cnn(CCc3ccc4c(n3)NCCC4)n2)C(=O)O)c(C)c1 : 300

[a] O=C(N[C@H](CNC(=O)c1cn(CCc2ccc3c(n2)NCCC3)cn1)C(=O)O)OCc1ccccc1
[b] Cc1cc(C)c(S(=O)(=O)N[C@@H](CNC(=O)c2cnn(CCc3ccc4c(n3)NCCC4)c2)C(=O)O)c(C)c1
Lab note: check whether a or b has the lower measured IC50. Pick one and reply with its label.
b
(b: 200 pM, a: 300 pM)

* * *

# system.name: human αVβ6 (Homo sapiens, UniProt P06756+P18564)
# assay.text: human αVβ6 HTRF binding assay
# Description: All binding assays used the HTRF (homogeneous time resolved fluorescence) technology from Cisbio International, therefore all assays are described as HTRF binding assays. The assay results for the Examples are listed above together with the characterization data. The HTRF binding assays are established for the following integrins: human αVβ6, human αVβ1, human αVβ3, human αVβ5, and human αVβ8. […]
readout: IC50 (nM)

[P] Cc1nn(CCc2ccc3c(n2)NCCC3)c(C)c1C(=O)NC(CC(=O)O)c1ccc(Cl)c(Cl)c1 (stereo not shown) [Example 57]
[Q] COc1ccc([C@H](CC(=O)O)NC(=O)c2cnn(CCCNc3ccccn3)c2)cn1 [Example 94]
[R] COc1ccc([C@H](CC(=O)O)NC(=O)c2cnn(CCCNC3=NCCN3)c2)cn1 [Example 88]
[S] Cc1cc(C)c(S(=O)(=O)N[C@@H](CNC(=O)c2cnn(CCCNC3=NCC(F)CN3)c2)C(=O)O)c(C)c1 (stereo partly shown) [Example 173]
Sort the molecules on IC50; start with the lowest figure. # respond with the labels, arranged in the requested order
S, P, R, Q
(S: 2.1 nM, P: 40 nM, R: 378 nM, Q: 592 nM)

* * *

# system.name: human αVβ1 (Homo sapiens, UniProt P05556+P06756)
# Sequence (P06756 31-992 limits assumed): as the sequence (P06756 31-992 limits assumed) above
# Sequence (P05556 21-728 limits assumed): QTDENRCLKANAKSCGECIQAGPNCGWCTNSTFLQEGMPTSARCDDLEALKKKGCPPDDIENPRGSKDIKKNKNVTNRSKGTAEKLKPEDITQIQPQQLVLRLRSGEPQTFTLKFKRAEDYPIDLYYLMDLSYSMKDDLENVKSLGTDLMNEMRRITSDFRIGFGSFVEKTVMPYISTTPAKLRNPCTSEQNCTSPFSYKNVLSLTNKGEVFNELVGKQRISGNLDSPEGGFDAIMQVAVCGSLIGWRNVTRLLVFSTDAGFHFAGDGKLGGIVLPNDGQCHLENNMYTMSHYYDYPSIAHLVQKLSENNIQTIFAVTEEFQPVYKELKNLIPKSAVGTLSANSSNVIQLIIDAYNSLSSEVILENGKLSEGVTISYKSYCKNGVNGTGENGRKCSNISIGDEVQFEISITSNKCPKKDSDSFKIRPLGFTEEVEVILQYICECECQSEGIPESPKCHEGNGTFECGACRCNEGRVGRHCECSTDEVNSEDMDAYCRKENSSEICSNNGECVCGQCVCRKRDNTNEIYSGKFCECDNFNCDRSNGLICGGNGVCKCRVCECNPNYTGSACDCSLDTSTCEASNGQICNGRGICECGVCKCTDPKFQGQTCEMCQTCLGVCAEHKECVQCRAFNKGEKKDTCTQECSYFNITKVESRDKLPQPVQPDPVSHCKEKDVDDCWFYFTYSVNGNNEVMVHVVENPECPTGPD
# assay.text: human αVβ1 HTRF binding assay
pIC50: −log10 of the molar value.
readout: pIC50

Below, each entry is followed by its recorded pIC50 result.
Cc1cc(C)c(S(=O)(=O)N[C@@H](CNC(=O)c2cnn(CCc3ccc4c(n3)NCCC4)n2)C(=O)O)c(C)c1 : 6.95
Cc1cc(C)c(S(=O)(=O)N[C@@H](CNC(=O)c2ccn(CCc3ccc4c(n3)NCCC4)c2)C(=O)O)c(C)c1 : 8.20
CCCCOC(=O)N[C@@H](CNC(=O)c1cnn(CCc2ccc3c(n2)NCCC3)c1)C(=O)O : 7.57
Cc1cc(C)c(S(=O)(=O)N[C@@H](CNC(=O)c2ncn(CCc3ccc4c(n3)NCCC4)n2)C(=O)O)c(C)c1 : 6.90
O=C(N[C@H](CNC(=O)c1cn(CCc2ccc3c(n2)NCCC3)cn1)C(=O)O)OCc1ccccc1 : 7.11
Cc1cc(C)c(S(=O)(=O)N[C@@H](CNC(=O)c2ccn(CCc3ccc4c(n3)NCCC4)n2)C(=O)O)c(C)c1 : 7.35

[I] Cc1cc(C)c(S(=O)(=O)N[C@@H](CNC(=O)c2cn(CCc3ccc4c(n3)NCCC4)nn2)C(=O)O)c(C)c1
[II] Cc1cc(C)c(S(=O)(=O)N[C@@H](CNC(=O)c2cnn(CCc3ccc4c(n3)NCCC4)c2)C(=O)O)c(C)c1
Exercise: compare I and II ; which one has the greater pIC50? Label of pick, please.
II

* * *

# system.name: human αVβ6 (Homo sapiens, UniProt P06756+P18564)
# assay.text: human αVβ6 HTRF binding assay
readout: IC50 (µM)

Answered examples (4):
O=C(O)CC(NC(=O)c1cnn(CCc2ccc3c(n2)NCCC3)c1)c1ccc2c(c1)OCO2 (stereo not shown) [Example 56] : 0.037
CN(C(=O)c1cnn(CCc2ccc3c(n2)NCCC3)c1CO)C(CC(=O)O)c1cc(Cl)cc(Cl)c1 (stereo not shown) [Example 40] : 0.014
O=C(N[C@@H](CNC(=O)c1cnn(CCc2ccc3c(n2)NCCC3)c1)C(=O)O)OCc1ccccc1 [Example 12] : 0.0011
CCN(C(=O)c1cnn(CCc2ccc3c(n2)NCCC3)c1)C(CC(C)=O)c1cc(Cl)cc(Cl)c1 (stereo not shown) [Example 104] : 3.81

[1] Cc1cccc(C(CC(=O)O)NC(=O)c2cnn(CCc3ccc4c(n3)NCCC4)c2CO)c1 (stereo not shown) [Example 55]
[2] O=C(O)CC(NC(=O)c1cnn(CCc2ccc3c(n2)NCCC3)c1CO)c1cccc(C(F)(F)F)c1 (stereo not shown) [Example 44]
[3] CCCCC(CC)COC(=O)N[C@@H](CNC(=O)c1cnn(CCc2ccc3c(n2)NCCC3)c1)C(=O)O (stereo partly shown) [Example 152]
[4] O=C(NC[C@H](NS(=O)(=O)Cc1ccncc1)C(=O)O)c1cnn(CCc2ccc3c(n2)NCCC3)c1 [Example 167]
[5] O=C(O)CC(NC(=O)c1cnn(CCc2ccc3c(n2)NCCC3)c1-c1ccccc1)c1cc(Cl)cc(Cl)c1 (stereo not shown) [Example 69]
Descending sort on IC50 required. Please list the labels in the order you were asked to rank them.
5, 1, 2, 4, 3
(5: 0.111 µM, 1: 0.032 µM, 2: 0.016 µM, 4: 0.0095 µM, 3: 0.0004 µM)

[A] Cc1ccc(C(CC(=O)O)NC(=O)c2cnn(CCc3ccc4c(n3)NCCC4)c2CO)cc1C (stereo not shown) [Example 52]
[B] O=C(O)CC(NC(=O)c1cnn(CCc2ccc3c(n2)NCCC3)c1CO)c1ccc(Cl)cc1 (stereo not shown) [Example 67]
Would you let me know which has the greater IC50 value, A or B ? Answer by quoting the chosen item's label.
B
(B: 0.095 µM, A: 0.029 µM)
